Assay method text: total protein half-life in vivo (active degradation + dilution); higher = more stable protein
Measurement conditions: wild type E. coli NCM3722; growth: N-lim chemostat; doubling time 12 h
Measured attribute: total protein half-life in vivo (h)

Chain sequence | Observed value
MRYHGDMLLTTPVISTLKQNYPDAKIDMLLYQDTIPILSENPEINALYGISNKGAGTFDKIKNVLSLIKTLRANNYDLVINLTDQWMVALLVRCLPARMKISQLYGHRQHGIWKKSFTHLAPIHGTHIVERNLSVLEPLGITDFYTDTTMSYAEDCWKKMRRELDALGVKDHYVVIQPTARQIFKCWDNDKFSKVIDALQQRGYQVVLTCGPSADDLACVDEIARGCETKPITGLAGKTRFPELGALIDHAVLFIGVDSAPGHIAAAVKTPVISLFGATDHVFWRPWTENIIQFWAGNYQKMPTRHELDRNKKYLSVIPAEDVIAATEKLLPEDAPSADRNAQL | 11.9
MQRLFLLVAVMLLSGCLTAPPKEAARPTLMPRAQSYKDLTHLPAPTGKIFVSVYNIQDETGQFKPYPASNFSTAVPQSATAMLVTALKDSRWFIPLERQGLQNLLNERKIIRAAQENGTVAINNRIPLQSLTAANIMVEGSIIGYESNVKSGGVGARYFGIGADTQYQLDQIAVNLRVVNVSTGEILSSVNTSKTILSYEVQAGVFRFIDYQRLLEGEVGYTSNEPVMLCLMSAIETGVIFLINDGIDRGLWDLQNKAERQNDILVKYRHMSVPPES [P0AEA2] | 4.39
MKSVLKVSLAALTLAFAVSSHAADKKLVVATDTAFVPFEFKQGDKYVGFDVDLWAAIAKELKLDYELKPMDFSGIIPALQTKNVDLALAGITITDERKKAIDFSDGYYKSGLLVMVKANNNDVKSVKDLDGKVVAVKSGTGSVDYAKANIKTKDLRQFPNIDNAYMELGTNRADAVLHDTPNILYFIKTAGNGQFKAVGDSLEAQQYGIAFPKGSDELRDKVNGALKTLRENGTYNEIYKKWFGTEPK [P0AEQ3] | 13.1
